target: VEGFR2 (Homo sapiens, UniProt P35968)
Sequence (P35968 20-1356): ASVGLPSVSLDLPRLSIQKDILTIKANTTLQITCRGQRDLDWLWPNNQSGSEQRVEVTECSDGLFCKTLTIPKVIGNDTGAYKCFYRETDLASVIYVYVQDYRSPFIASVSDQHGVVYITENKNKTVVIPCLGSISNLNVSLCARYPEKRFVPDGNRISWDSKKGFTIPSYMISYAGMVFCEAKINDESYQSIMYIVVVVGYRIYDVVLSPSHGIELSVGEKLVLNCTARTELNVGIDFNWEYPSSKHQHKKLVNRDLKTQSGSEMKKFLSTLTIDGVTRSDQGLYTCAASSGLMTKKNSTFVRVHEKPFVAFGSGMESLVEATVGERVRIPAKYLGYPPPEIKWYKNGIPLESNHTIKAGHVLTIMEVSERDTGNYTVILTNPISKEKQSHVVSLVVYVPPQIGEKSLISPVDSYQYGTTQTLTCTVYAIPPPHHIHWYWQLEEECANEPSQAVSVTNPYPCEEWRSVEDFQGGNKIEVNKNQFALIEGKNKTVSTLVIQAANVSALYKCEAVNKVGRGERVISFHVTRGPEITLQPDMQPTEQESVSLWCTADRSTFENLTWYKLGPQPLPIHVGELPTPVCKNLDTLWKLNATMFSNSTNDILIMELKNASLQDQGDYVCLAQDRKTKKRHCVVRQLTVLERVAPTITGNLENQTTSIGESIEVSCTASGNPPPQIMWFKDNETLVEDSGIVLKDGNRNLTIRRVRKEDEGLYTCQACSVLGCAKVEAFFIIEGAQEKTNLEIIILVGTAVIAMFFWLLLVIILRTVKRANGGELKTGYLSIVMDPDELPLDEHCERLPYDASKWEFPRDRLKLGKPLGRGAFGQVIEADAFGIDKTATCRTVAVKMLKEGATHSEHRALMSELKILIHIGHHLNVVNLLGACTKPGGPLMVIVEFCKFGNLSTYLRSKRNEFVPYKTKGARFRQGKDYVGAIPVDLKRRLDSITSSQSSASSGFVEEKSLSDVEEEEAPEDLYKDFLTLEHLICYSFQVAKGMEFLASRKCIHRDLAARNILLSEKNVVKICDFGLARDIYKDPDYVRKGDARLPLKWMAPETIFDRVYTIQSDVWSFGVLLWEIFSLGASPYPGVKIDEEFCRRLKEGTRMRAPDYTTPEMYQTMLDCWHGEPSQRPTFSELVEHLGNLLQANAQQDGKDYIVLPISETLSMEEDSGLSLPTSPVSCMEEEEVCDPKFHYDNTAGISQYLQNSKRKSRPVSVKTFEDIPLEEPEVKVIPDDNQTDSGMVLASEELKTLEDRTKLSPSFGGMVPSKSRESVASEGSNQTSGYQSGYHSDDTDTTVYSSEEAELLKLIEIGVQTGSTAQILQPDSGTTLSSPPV
measured.parameter: IC50 (nM)

[
  {
    "compound": "Cc1cccc(-c2nc3n(c2-c2ccc4ncnn4c2)CCN3)n1 [TU2218]",
    "readout.number": 4.9
  }
]
